procedure.text: inhibitors of mutant huntingtin aggregation, primary screen, imaging, exon1htt(103Q)mCFP cells, high-content imaging (AID 483);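 further: compound exposure lasted 3 days before fixation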
experimental.parameters: exon1htt(103Q)mCFP cell line, aggregate imaging, at 2 µM; stronger effect = higher value
readout.label: inhibition of aggregation (%)
One number for each entry, in %.

Examples with their reported inhibition of aggregation follow.
CC(C)(S)[C@@H](N)C(=O)O; -5.6
O=C(/C=C/c1ccccc1)c1ccccc1; -4.6
COc1ccc2c(c1)[nH]c1c(=O)n(CC3CCCO3)cnc12 (stereo not given); 5.9
COC(=O)CSc1nc2sc3c(c2c(=O)n1C1CCCCC1)CCN(C)C3; -16
CN1CCC(=C2c3ccccc3C=Cc3ccccc32)CC1; -5.2

Go through the list and state inhibition of aggregation for each entry.
1. CCC(CC)C1C(C#N)=C(N)Oc2n[nH]c(C)c21 (stereo not given)
2. CCNC(=O)N(C(=O)NCC)n1c(C)nnc1C
3. CCCCOc1ccc(C(=O)Nc2ccc(N3CCN(C(C)=O)CC3)cc2)cc1

1. -28.3
2. 16.9
3. 0.5
